# measurement-protocol: Metabolic stability test: liver microsomal stability assay
# Format: in vitro ADME, mouse
# run-parameters: male, pH 7.4; mouse liver microsomes 0.5 mg protein/mL, compound 1 µM, presence of NADPH; read-out: Mouse Hepatic Microsome CLh,int NADPH(+)
# Method: Under the presence and absence of NADPH, a microsome solution prepared to a concentration of 0.5 mg protein/mL using 100 mM phosphate buffer (pH 7.4) with mouse liver microsomes (male, Corning Incorporated, USA) and the compound at a concentration of 1 µM were subjected to a metabolic reaction for 22 minutes, 44 minutes, or 66 minutes. […]
Starred links: 1 amine or outer side, 2 acyl side, 3 side chain; linkers in the order of their positions; H or OH if unused. Non-standard residues stand in square brackets, D forms with d. Residues, ends and D or L forms follow the SMILES beside them. *: point of attachment. NMedβ3hAla = C[C@H](CC(=O)[*:2])N(C)[*:1]; NMeF = CN[C@@H](Cc1ccccc1)C(=O)O; NMeT = CN[C@H](C(=O)O)[C@@H](C)O; hPhe = N[C@@H](CCc1ccccc1)C(=O)O; NMeL = CN[C@@H](CC(C)C)C(=O)O; NMeV = CN[C@H](C(=O)O)C(C)C; d(β3hA) = C[C@@H](N)CC(=O)O; NMeAbu = CC[C@H](NC)C(=O)O; NMeA = CN[C@@H](C)C(=O)O; Sar = CNCC(=O)O; tBu = CC(C)(C)*
readout-label: microsomal CLint at 1 µM (µL/min/mg)
Express the result in µL/min/mg but write the number alone.

{"molecule": "CC[C@H]1C(=O)N(C)[C@@H](CC(C)C)C(=O)N2CCC[C@H]2C(=O)N(C)[C@@H](CC)C(=O)N[C@@H](CCc2ccccc2)C(=O)N(C)[C@@H](C)C(=O)N(C)[C@@H](CC)C(=O)N[C@@H](C(C)C)C(=O)N(C)[C@H](C)CC(=O)N(C)CC(=O)N(C)[C@@H](Cc2ccccc2)C(=O)N[C@@H]([C@@H](C)O)C(=O)N(C)[C@@H](CC(C)C)C(=O)N[C@@H](C(C)C)C(=O)N1C [pd073] (cyclo([NMeA][NMeAbu]V[NMedβ3hAla][Sar][NMeF]T[NMeL]V[NMeAbu][NMeL]P[NMeAbu][hPhe]))", "readout-label": "microsomal CLint at 1 µM", "unit-abbrev": "µL/min/mg", "measured-result": 24.3}

Could you now consider this next molecule?
# microsomal CLint at 1 µM of CC[C@H](C)[C@@H]1NC(=O)[C@H](CC(C)C)N(C)C(=O)C[C@@H](C)NC(=O)[C@H](C(C)C)N(C)C(=O)[C@H](COC(C)(C)C)NC(=O)[C@H](CC)N(C)C(=O)[C@H](Cc2ccccc2)N(C)C(=O)[C@H](CC(C)C)NC(=O)[C@@H]2CCCN2C(=O)[C@H]([C@@H](C)O)N(C)C(=O)[C@H](CC(C)C)N(C)C(=O)[C@H](CC)N(C)C(=O)[C@H](C(C)C)N(C)C(=O)[C@H](CC(C)C)N(C)C1=O [pd061] (cyclo(I[NMeL][NMeV][NMeAbu][NMeL][NMeT]PL[NMeF][NMeAbu]S(tBu)[NMeV][d(β3hA)][NMeL])) = 39

* * *

Here the recorded Caco2 Papp (10^-6 cm/sec) is given for each entry.
# System: Caco-2 cells
# measurement-protocol: Membrane permeability test using Caco-2 cells with preincubation
# Assay type: in vitro ADME
# run-parameters: Caco-2 cells, preincubation 20 to 24 hours; apical FaSSIF/HBSS 1% DMSO pH 6.0, basal HBSS 4% BSA pH 7.4; basal sample at 180 minutes
Starred links: 1 amine or outer side, 2 acyl side, 3 side chain; linkers in the order of their positions; H or OH if unused. Positions of bridges follow the written chain, without caps; N, C: chain ends. Non-standard residues stand in square brackets, D forms with d. Residues, ends and D or L forms follow the SMILES beside them. *: point of attachment. NMeF = CN[C@@H](Cc1ccccc1)C(=O)O; NMeI = CC[C@H](C)[C@H](NC)C(=O)O; NMeT = CN[C@H](C(=O)O)[C@@H](C)O; NMeβAla = CN(CCC(=O)[*:2])[*:1]; NMeD = CN[C@@H](CC(=O)O)C(=O)O; NMeL = CN[C@@H](CC(C)C)C(=O)O; NMeV = CN[C@H](C(=O)O)C(C)C; NMeAbu = CC[C@H](NC)C(=O)O; NMeA = CN[C@@H](C)C(=O)O; Piperidide = C1CCN(*)CC1; Abu = CC[C@H](N)C(=O)O; Sar = CNCC(=O)O; tBu = CC(C)(C)*

{"molecule": "CC[C@@H]1NC(=O)[C@H](C(C)C)N(C)C(=O)[C@H](CC(C)C)NC(=O)[C@H](CC(C)C)N(C)C(=O)[C@H]([C@@H](C)O)NC(=O)CN(C)C(=O)[C@H]([C@@H](C)CC)NC(=O)[C@H](Cc2ccccc2)N(C)C(=O)[C@H](CC(C)C)N(C)C(=O)C[C@@H](C(=O)N2CCCCC2)NC(=O)[C@H](Cc2ccccc2)N(C)C(=O)[C@H](COC(C)(C)C)NC(=O)[C@@H]2CCCN2C(=O)[C@H]([C@@H](C)CC)NC1=O [pd031] ([NMeL][NMeF]I[Sar]T[NMeL]L[NMeV][Abu]IPS(tBu)[NMeF]D-Piperidide; lactam N-14)", "measured-result": "0.04 10^-6 cm/sec"}
{"molecule": "CC[C@H](C)[C@@H]1NC(=O)[C@@H]2CCCN2C(=O)[C@H](CC(C)C)N(C)C(=O)[C@H](CC(C)C)NC(=O)[C@H]([C@@H](C)CC)N(C)C(=O)[C@H]([C@@H](C)O)NC(=O)[C@H](Cc2ccccc2)N(C)C(=O)[C@H](CC)N(C)C(=O)[C@H](Cc2ccccc2)N(C)C(=O)[C@H](C(C)C)NC(=O)[C@H](CC(C)C)N(C)C(=O)[C@H](C)N(C)C(=O)C[C@@H](C(=O)N2CCCCC2)NC(=O)[C@H](C(C)C)N(C)C1=O [pd043] ([NMeA][NMeL]V[NMeF][NMeAbu][NMeF]T[NMeI]L[NMeL]PI[NMeV]D-Piperidide; lactam N-14)", "measured-result": "0.16 10^-6 cm/sec"}
{"molecule": "CC[C@H](C)[C@@H]1NC(=O)[C@H](C)N(C)C(=O)[C@H]([C@@H](C)O)NC(=O)[C@H](Cc2ccccc2)N(C)C(=O)[C@H](COC(C)(C)C)NC(=O)[C@H](CC(C)C)N(C)C(=O)CN(C)C(=O)[C@H](Cc2ccccc2)N(C)C(=O)[C@H]([C@@H](C)CC)NC(=O)[C@H](CC(C)C)N(C)C(=O)CCN(C)C(=O)C[C@@H](C(=O)N2CCCCC2)NC(=O)[C@H](CC(C)C)N(C)C1=O [pd110] ([NMeβAla][NMeL]I[NMeF][Sar][NMeL]S(tBu)[NMeF]T[NMeA]I[NMeL]D-Piperidide; lactam N-13)", "measured-result": "0.43 10^-6 cm/sec"}

Could you now consider this next molecule?
# Caco2 Papp (10^-6 cm/sec) of CC[C@H](C)[C@@H]1NC(=O)[C@H](CC(C)C)N(C)C(=O)[C@H](CC(C)C)NC(=O)CCN(C)C(=O)C[C@@H](C(=O)N2CCCCC2)N(C)C(=O)[C@H](CC(C)C)N(C)C(=O)[C@H](C)N(C)C(=O)[C@H]([C@@H](C)O)N(C)C(=O)[C@H](CC(C)C)N(C)C(=O)[C@H](COC(C)(C)C)NC(=O)[C@H](Cc2ccccc2)N(C)C(=O)[C@H](CC(C)C)N(C)C(=O)[C@H](Cc2ccccc2)N(C)C1=O [pd166] ([NMeβAla]L[NMeL]I[NMeF][NMeL][NMeF]S(tBu)[NMeL][NMeT][NMeA][NMeL][NMeD]-Piperidide; lactam N-13) = 0.13 10^-6 cm/sec
